Ref: PubChem BioAssay AID1259415

experiment: qHTS Assay for inhibitors of the human cytomegalovirus (HCMV); conditions: HFF cells, HCMV-luciferase reporter, 72 h; at 57.5 µM; stronger effect = lower value; note: % is set by controls: 0 for no effect and ±100 for the full control effect
Out of some 410,000 compounds screened, about 18,000 (4.4%) were called active. Not shown: some 7% with an inconclusive outcome. This is one part of a sample in which actives are shown more often than they occur.
// map activity change, negative = inhibition to label using class A: < -10%; class B: ≥ -10% and < 10%; class C: ≥ 10%

Examples with answers:
Class label required: `COc1ccc(-c2nc(CN3CCC(C(=O)NCCN(CC(C)C)CC(C)C)CC3)c(C)o2)cc1OC` class B

Class label required: `CCc1ccc(S(=O)(=O)c2nnn3c2nc(N2CCN(CC)CC2)c2sccc23)cc1` class B

Next:
Class label required: `COc1ccc(-c2noc(CCC(=O)N(C)c3ccccc3C)n2)cc1` class A

Class label required: C=CCn1c(SCC(N)=O)nnc1-c1cc2c(s1)CCC(CC)C2 (stereo not given) class A

Class label required: `CCc1ccc(NC(=O)CSc2nc3c([nH]c4ccccc43)c(=O)n2-c2cccc(OC)c2)cc1` class C

Class label required: `COc1ccccc1-c1ccc([C@@H]2C[C@H]3[C@H](CON3C)CN2S(=O)(=O)c2cc(Cl)cc(Cl)c2)cc1` class B

Class label required: `CC(C)c1ccc(NC(=O)CN(C)S(=O)(=O)c2ccc3c(c2)c(=O)n(C)c(=O)n3C)cc1` class A

Class label required: `NS(=O)(=O)c1ccc2nc(NC(=O)COc3ccccc3)sc2c1` class B

Class label required: `CCn1nc(C)c(NC(=O)/C=C/c2ccc(OC)c(COc3ccc(Br)cc3)c2)c1C` class A

Class label required: `COc1ccc(S(=O)(=O)N2CCc3ccccc32)cc1C(=O)Nc1cc(S(C)(=O)=O)ccc1Cl` class A

Class label required: `Cc1ccc2onc(CC(=O)N3CCN(c4ccc(Cl)cc4)CC3)c2c1` class A

Class label required: `NS(=O)(=O)c1ccc(NC(=O)COc2ccc(S(=O)(=O)NC3CCCCC3)cc2)cc1` class C

Class label required: `O=C(CSc1nc(C2CC2)nc2ccccc12)Nc1ccc2c(c1)OCCO2` class A

Class label required: `O=C(CSc1nnnn1C1CCCC1)Nc1ccc2c(c1)OCCO2` class C

Class label required: `CC1=C(C(=O)N2CCN(c3cccc(C(F)(F)F)c3)CC2)C2(CCCCC2)OC1=O` class C

----------
test: qHTS Assay for inhibitors of the human cytomegalovirus (HCMV); conditions: HFF cells, HCMV-luciferase reporter, 72 h; at 57.5 µM; note: % is set by controls: 0 for no effect and ±100 for the full control effect
Hit rate of the full screen: of about 410,000 compounds, about 18,000 (4.4%) were called active. Inconclusive results (about 7%) are left out. Cut-off read from the data, not from the text of the source: active = activity change below about -60%; inconclusive = no clear call, values can overlap the other calls; inactive = above about -39%. This excerpt belongs to a sample that is enriched for actives.
Select the correct class. Options are y = active, n = inactive and nothing else.

Field: outcome | Entry: `Cc1ccc(C)c(-n2nnnc2SCC(=O)c2c(N)n(C)c(=O)n(C)c2=O)c1` n

Field: outcome | Entry: `COc1ccc(S(=O)(=O)c2cn(C)c3cc(N4CCCCC4)c(F)cc3c2=O)cc1` n

Field: outcome | Entry: O=C(NC1CCCCC1)C1CC(=O)N(CCc2ccccc2)C1 (stereo not given) y

Field: outcome | Entry: O=C(NCCCN1CCCCC1)C1CC(=O)N(CCc2ccccc2)C1 (stereo not given) n

Field: outcome | Entry: COc1ccc(C(CNCC(=O)Nc2ccccc2F)N(C)C)cc1 (stereo not given) n

Next:
Field: outcome | Entry: `CC(=O)N1CCc2cc(S(=O)(=O)Nc3ccccc3N3CCN(C)CC3)ccc21` n

Field: outcome | Entry: `COc1ccc(CCNC(=O)COC(=O)Cc2ccccc2F)cc1` n

Field: outcome | Entry: `CCOc1ccc(C(=O)c2cn(Cc3ccc(F)cc3)c3ccc(F)cc3c2=O)cc1` n

Field: outcome | Entry: `Cc1ccc2oc(=O)c3cnn(CC(=O)N4CCN(c5cccc(Cl)c5)CC4)c3c2c1` n

Field: outcome | Entry: `CCN(C(=O)COC(=O)c1c(C)nn(-c2ccccc2)c1Cl)c1c(N)n(Cc2ccccc2)c(=O)[nH]c1=O` n

----------
experiment: qHTS Assay for inhibitors of the human cytomegalovirus (HCMV); conditions: HFF cells, HCMV-luciferase reporter, 72 h; at 57.5 µM; stronger effect = lower value; note: % is set by controls: 0 for no effect and ±100 for the full control effect
Screen size: about 410,000 compounds; about 18,000 (4.4%) were called active. Another 7% or so got no clear call; they are omitted. The full list was thinned out, with actives kept by preference.
property.measured: activity change, negative = inhibition (%)
Kindly answer with a numeric value in %, unit omitted.

Completed entries (count: 6):
Kindly indicate its recorded activity change, negative = inhibition. Item: NC(=O)C(Cc1ccccc1)NC(=O)C12CC3CC(CC(C3)C1)C2 (centres undefined) 50.8

Kindly indicate its recorded activity change, negative = inhibition. Item: `Cc1ccc(C)c(N2CCN(Cc3nnc(-c4ccccc4)o3)CC2)c1` 27.7

Kindly indicate its recorded activity change, negative = inhibition. Item: `COc1ccc(NC(=O)CCNC(=O)Cn2ccc3ccccc3c2=O)c(OC)c1` -21.8

Kindly indicate its recorded activity change, negative = inhibition. Item: `CNc1nc2cnc(-c3ccsc3)cc2n1Cc1ccccc1` 12.4

Kindly indicate its recorded activity change, negative = inhibition. Item: `CC(C)c1ccc(NC(=O)c2ccc3c(O)c(S(=O)(=O)c4ccccc4)c(=O)[nH]c3c2)cc1` 2.46

Kindly indicate its recorded activity change, negative = inhibition. Item: `COC(=O)c1cc(S(=O)(=O)N2CCN(c3cc(Cl)ccc3C)CC2)c[nH]1` -37

Next:
Kindly indicate its recorded activity change, negative = inhibition. Item: `Cc1ccc2nc(COc3ccccc3NC(=O)Nc3ccc(F)c(Cl)c3)cc(=O)n2c1` 9.77

Kindly indicate its recorded activity change, negative = inhibition. Item: CC1CCC2(CC1)N=C(c1ccccc1)C(=O)N2CC(=O)Nc1ccc(F)c(Cl)c1 (centres undefined) -96

Kindly indicate its recorded activity change, negative = inhibition. Item: `CS(=O)(=O)c1ccc(-c2nnc(NC(=O)c3ccc4c(c3)OCCO4)o2)cc1` -0.462

Kindly indicate its recorded activity change, negative = inhibition. Item: COc1ccc(OC)c2sc(N3CCN(C(=O)C4COc5ccccc5O4)CC3)nc12 (centres undefined) -1.41

Kindly indicate its recorded activity change, negative = inhibition. Item: CC(=O)OC1CCC2(C)C(=CCC3C4CC(=O)N(O)C(=O)C4(C)CCC32)C1 (centres undefined) 17.9

----------
test: qHTS Assay for inhibitors of the human cytomegalovirus (HCMV); conditions: HFF cells, HCMV-luciferase reporter, 72 h; at 57.5 µM; note: % is set by controls: 0 for no effect and ±100 for the full control effect
About 18,000 (4.4%) of roughly 410,000 compounds were called active. Another 7% or so got no clear call; they are omitted. Cut-off read from the data, not from the text of the source: active = activity change below about -60%; inconclusive = no clear call, values can overlap the other calls; inactive = above about -39%. Many of the other results were omitted from the sample, so actives are more common in it than they were.
Select the correct class. Options are YES (active), NO (inactive) and nothing else.

Field: outcome | Entry: `N/C(=N\OC(=O)N1c2ccccc2Sc2ccccc21)c1ccc(Br)cc1` YES

Next:
Field: outcome | Entry: `O=C(OCc1cc(=O)n2nc(C3CC3)sc2n1)c1ccccc1Cl` NO

Field: outcome | Entry: `COc1ccc(-c2nnc(SC(=O)N3c4ccccc4Sc4ccccc43)o2)cc1` NO

Field: outcome | Entry: `CN(Cc1ccccc1)C(=O)c1cn(C)c2ccc(S(=O)(=O)N3CCCCC3)cc2c1=O` NO

Field: outcome | Entry: `Cc1cc(-c2n[nH]c(=S)n2/N=C/C(Br)=C/c2ccccc2)n[nH]1` YES

----------
experiment: qHTS Assay for inhibitors of the human cytomegalovirus (HCMV); settings: HFF cells, HCMV-luciferase reporter, 72 h; at 57.5 µM; stronger effect = lower value; note: % is set by controls: 0 for no effect and ±100 for the full control effect
Out of some 410,000 compounds screened, about 18,000 (4.4%) were called active. Not shown: some 7% with an inconclusive outcome. Many of the other results were omitted from the sample, so actives are more common in it than they were.
Recorded activity change, negative = inhibition for the following compounds
Kindly answer with a numeric value in %, unit omitted.

Completed entries (count: 10):
Kindly indicate its recorded activity change, negative = inhibition. Item: `O=C(CSc1nc2ccccc2o1)N1CCN(c2ccccc2)CC1` -78.3

Kindly indicate its recorded activity change, negative = inhibition. Item: `Cc1cc(C)cc(-n2ccnc2SCC(=O)Nc2nc3ccccc3s2)c1` -5.53

Kindly indicate its recorded activity change, negative = inhibition. Item: `Cc1oc2c(F)c(F)c(F)c(F)c2c1S(=O)(=O)Nc1cccc(C(F)(F)F)c1` -97.8

Kindly indicate its recorded activity change, negative = inhibition. Item: `O=C(CSc1nc2ccccc2o1)N1CCN(c2ccc(Cl)cc2)CC1` -0.478

Kindly indicate its recorded activity change, negative = inhibition. Item: `CCOc1ccc(S(=O)(=O)NCCC(=O)NNC(=O)c2ccc(F)cc2)cc1` 70.6

Kindly indicate its recorded activity change, negative = inhibition. Item: `CCNS(=O)(=O)c1cc(-c2nnc(Nc3cccc(C(F)(F)F)c3)c3ccccc23)ccc1C` 34.1

Kindly indicate its recorded activity change, negative = inhibition. Item: `Cc1ccc(F)cc1NC(=O)CCSc1nc(-c2ccco2)cc(C(F)(F)F)n1` -17

Kindly indicate its recorded activity change, negative = inhibition. Item: CC(CCc1ccccc1)NCC(O)c1cccc([N+](=O)[O-])c1 (stereo unspecified) -22

Kindly indicate its recorded activity change, negative = inhibition. Item: CCC(C)NCC(=O)Nc1ccc([N+](=O)[O-])cc1C(=O)Nc1ccccc1F (stereo unspecified) 20.4

Kindly indicate its recorded activity change, negative = inhibition. Item: `CCN(CC)S(=O)(=O)c1ccc(C(=O)N=c2sc3cccc(OC)c3n2C)cc1` -2.8

Now look at this one.
Kindly indicate its recorded activity change, negative = inhibition. Item: `O=C(CSc1ccccn1)N1CCN(S(=O)(=O)c2ccc(Cl)cc2)CC1` -33.6
